molecular target: IRAK4 (Homo sapiens, UniProt Q9NWZ3); construct: endogenous in cells; host or cells: Karpas299; experiment: IRAK4 Degradation Assay (Karpas299, HTRF/TR-FRET); type: cell-based; conditions: Karpas-299 cells, 24 h treatment; maximum percentage of degradation; read-out: IRAK4 in Karpas-299 (24 h) Dmax (%)
Sequence (Q9NWZ3 whole entry): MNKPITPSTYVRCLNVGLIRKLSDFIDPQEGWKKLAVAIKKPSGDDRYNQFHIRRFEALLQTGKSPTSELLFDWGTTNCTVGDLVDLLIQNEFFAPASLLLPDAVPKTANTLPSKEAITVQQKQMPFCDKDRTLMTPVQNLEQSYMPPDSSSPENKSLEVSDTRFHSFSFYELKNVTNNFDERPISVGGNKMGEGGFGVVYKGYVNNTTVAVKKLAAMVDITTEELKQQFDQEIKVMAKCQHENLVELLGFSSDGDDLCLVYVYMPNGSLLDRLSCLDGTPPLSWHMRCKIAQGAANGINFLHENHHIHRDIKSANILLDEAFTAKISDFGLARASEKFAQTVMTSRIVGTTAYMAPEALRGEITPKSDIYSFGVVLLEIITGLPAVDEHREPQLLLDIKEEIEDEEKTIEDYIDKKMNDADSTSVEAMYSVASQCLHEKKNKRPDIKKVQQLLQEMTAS
I'd be grateful if you could share measured Dmax for these entries.
# number only, unit % dropped from output

Lab book: Dmax of CC(C)(O)c1cc2nn([C@H]3CC[C@H](CN4CCN(C5CN(c6cc(F)c([C@H]7CCC(=O)NC7=O)c(F)c6)C5)CC4)CC3)cc2cc1NC(=O)c1csc(-c2cn[nH]c2)n1 noted as 99

Noted for NC(=O)c1nn(-c2ccc(N3CCN(C(=O)C4CN(c5ccc(N6CCC(=O)NC6=O)cc5)C4)CC3)nc2)cc1NC(=O)c1coc(-c2ccnc(NCC(F)(F)F)c2)n1 : its Dmax reads 96

response.value for CC(C)(O)c1cc2nn([C@H]3CC[C@H](N4CCN(CCc5cc(F)c([C@H]6CCC(=O)NC6=O)c(F)c5)CC4)CC3)cc2cc1NC(=O)c1ccc2cc(C#N)cnn12 (field: Dmax) = 98

Summary for this molecule, CC(C)(O)c1cc2nn([C@H]3CC[C@H](CN4CCN(CCNc5cccc6c5C(=O)N(C5CCC(=O)NC5=O)C6=O)CC4)CC3)cc2cc1NC(=O)c1ccc2cc(C#N)cnn12 (stereo partly drawn) : Dmax is 96

Dmax reading for Cn1c(=O)n(C2CCC(=O)NC2=O)c2cccc(CCCN3CCN([C@H]4CC[C@H](n5cc6cc(NC(=O)c7ccc8cc(C#N)cnn78)c(C(C)(C)O)cc6n5)CC4)CC3)c21 (stereo partly drawn) : 94

Recorded Dmax (molecule CC(C)(O)c1cc2nn(C34CC(N5CCN(C(=O)C6CN(c7cc(F)c([C@H]8CCC(=O)NC8=O)c(F)c7)C6)CC5)(C3)C4)cc2cc1NC(=O)c1cccc(C(F)(F)F)n1 ): 97

Entry CC(C)(O)c1cc2nn([C@H]3CC[C@H](N4CCN(C(=O)/C=C/C56CC7CC(CC(C7)C5)C6)CC4)CC3)cc2cc1NC(=O)c1ccc2cc(C#N)cnn12 , Dmax reported as 4

Sure, the documented Dmax for COc1cc2nn(C3CCN(C4CN(C(=O)C5CN(c6cc(F)c([C@H]7CCC(=O)NC7=O)c(F)c6)C5)C4)CC3)cc2cc1NC(=O)c1cccc(C(F)(F)F)n1 is 95

For Cc1nc(C2CCC(=O)NC2=O)ccc1N1CCC(N2CCN(C34CC(n5cc6cc(NC(=O)c7ccc8cc(C#N)cnn78)c(C(C)(C)O)cc6n5)(C3)C4)CC2)CC1 (stereo not drawn) the molecule record lists Dmax as 97

The recorded Dmax for entry C[C@@H]1CN(C2CN(c3cc(F)c([C@H]4CCC(=O)NC4=O)c(F)c3)C2)CCN1[C@H]1CC[C@H](n2cc3cc(NC(=O)c4ccc5cc(C#N)cnn45)c(C(C)(C)O)cc3n2)CC1 equals 98

In plain terms, O=C1CC[C@H](c2c(F)cc(N3CC(C(=O)N4CCN(c5ccc(-n6cc(NC(=O)c7coc(-c8ccnc(NCC9CC9)c8)n7)c(C(F)F)n6)cn5)CC4)C3)cc2F)C(=O)N1 has a documented Dmax of 96

Consider CC(C)(O)c1cc2nn([C@H]3CC[C@H](N4CCN(C(=O)C5CN(c6cc(F)c([C@H]7CCC(=O)NC7=O)c(F)c6)C5)CC4=O)CC3)cc2cc1NC(=O)c1ccc2cc(C#N)cnn12 . Its measured Dmax is 99
